measurement_notes: NCI Yeast Anticancer Drug Screen. Data for the mec2-1 strain (AID 157)
applied_conditions: S. cerevisiae mec2-1 strain, at 50.0 µM, stronger effect = higher value
About 79,000 compounds went through this panel and 15% of them were active in at least one assay; those are over-represented in the sample as a whole.
test_readout: growth inhibition (%)
State just the number; it will be interpreted in %.

Below, each entry is followed by its recorded growth inhibition result.
O=[N+]([O-])c1cccc2c1ccc1nonc12    -5.15
Cc1c(C)c2cc(Br)ccc2[nH]c1=O    -6.2
O=C1C=CC[C@H](/C=C/c2ccccc2)O1    31.8
C=C(C)C(=O)OCC(CC)(COC(=O)C(=C)C)COC(=O)C(=C)C    -19.6
CCOC(=O)C(C)Oc1ccc(Cl)cc1 (centres undefined)    -14.9
O=S(=O)(O)c1cc(N=Nc2cc(S(=O)(=O)O)c3ccccc3c2O)ccc1/C=C/c1ccc(N=Nc2cc(S(=O)(=O)O)c3ccccc3c2O)cc1S(=O)(=O)O    36

Requested read-out: growth inhibition. Entry: CC1OS(=O)OC1C (centres undefined) -23.6

Requested read-out: growth inhibition. Entry: O=C(Cc1ccccc1)Nc1cccc2ccccc12 1.7
